Tested on: MV4,11 cells
Procedure Details: FLT3 assay using MV4,11 cells (cellular proliferation, MTS)
Format: cell-based, human
Condition Notes: cell assay code CS0001
Property: Cell Assay: CS0001:IC50

>>> print(df.to_string())
                                   compound   result
0  CC(C)(C)c1cc(NC(=O)Nc2ccc(NC(=O)C(N)Cc3ccccc3F)cc2)no1 (stereo not shown) [Compound N42]      + +
1  Cc1cccc(C(=O)Nc2ccc(NC(=O)Nc3cc(C(C)(C)C)on3)cc2)n1 [Compound N121]  + + + +
2  COc1ccc(C(=O)c2c[nH]c(C(=O)Nc3ccc(NC(=O)Nc4cc(C(C)(C)C)on4)cc3)c2)cc1 [Compound N177]      + +
3  C=CCOc1ccc(NC(=O)Nc2cc(C(C)(C)C)no2)cc1 [Compound G32]  + + + +
4  Cn1nc(-c2ccccc2)c2cc(C(=O)Nc3ccc(NC(=O)Nc4cc(C(C)(C)C)on4)cc3)sc21 [Compound N5]  + + + +
5  Cc1cc(NC(=O)c2cn3nc(Cl)ccc3n2)ccc1NC(=O)Nc1cc(C(C)(C)C)on1 [Compound N169]    + + +
6  Cc1nc(-c2ccc(Cl)cc2)sc1C(=O)Nc1ccc(NC(=O)Nc2cc(C(C)(C)C)on2)cc1 [Compound N184]  + + + +
7  Cc1ccc(-c2cc(C(=O)Nc3ccc(NC(=O)Nc4cc(C(C)(C)C)on4)cc3)c(C)o2)cc1 [Compound N120]    + + +
8  CC(C)(C)c1cc(NC(=O)Nc2ccc(OCc3ccc(OC(F)(F)F)cc3)cc2)no1 [Compound G5]    + + +
9  C=N/C(=N\C)Oc1cccc(C(=O)Nc2ccc(NC(=O)Nc3cc(C(C)(C)C)on3)cc2)c1 [Compound N74]  + + + +

Exam item: Report Cell Assay: CS0001:IC50 for CC(C)(C)c1cc(NC(=O)Nc2ccc(NC(=O)c3cccc4nc5cc(O)cc(O)c5cc34)cc2)no1 [Compound N139] please.
Marked response: + + +

Exam item: Next record, please: CC(C)(C)c1cc(NC(=O)Nc2ccc(NC(=O)c3ccc4ccccc4n3)cc2)no1 [Compound N143]
Marked response: + + + +

Exam item: Same again, this time with CC(C)(C)c1cc(NC(=O)Nc2ccc(OCc3ccc(C(F)(F)F)cc3)cc2)no1 [Compound G6]
Marked response: + + +

Exam item: Could you do the same for Cc1ccc(C(=O)Nc2ccc(NC(=O)Nc3cc(C(C)(C)C)on3)cc2)cc1 [Compound N92] , please?
Marked response: + + + +

Exam item: Queued: Cc1[nH]c(C(=O)Nc2ccc(NC(=O)Nc3cc(C(C)(C)C)on3)cc2)c(C)c1CCC(=O)O [Compound N39]
Marked response: + +

Exam item: Try this compound next: CC(C)(C)c1cc(NC(=O)Nc2ccc(-c3nc(-c4ccc(Cl)cc4)no3)cc2)no1 [Compound P7]
Marked response: + + + +
